# merged literature set: Ki with Proto-oncogene tyrosine-protein kinase Src (Homo sapiens, UniProt P12931)

- molecule: "Nc1ncnc2c1cnn2CC1CCNCC1"
  unitString: "nM"
  inequalitySymbol: ">"
  Ki: 10000
- molecule: "OC(Cn1ncc2c(NCc3ccc(F)cc3)ncnc21)c1ccccc1 (stereo not drawn)"
  unitString: "nM"
  inequalitySymbol: "="
  Ki: 10000
- molecule: "CSc1nc(Nc2cccc(Cl)c2)c2cnn(CC(Cl)c3ccccc3)c2n1 (stereo not drawn)"
  unitString: "nM"
  inequalitySymbol: "="
  Ki: 720
- molecule: "COc1ccc2c(N[C@@H]3C[C@H]3c3ccccc3)c(C#N)cnc2c1"
  unitString: "nM"
  inequalitySymbol: "="
  Ki: 170
- molecule: "COc1cc2ncc(C#N)c(N[C@@H]3C[C@H]3c3ccccc3)c2cc1OC"
  unitString: "nM"
  inequalitySymbol: "="
  Ki: 150
- molecule: "COc1ccccc1Sc1nc(Nc2cc(C)[nH]n2)c2ccccc2n1"
  unitString: "nM"
  inequalitySymbol: ">"
  Ki: 1000
- molecule: "N#Cc1cnc2cc(-c3ccc(CN4CCOCC4)cc3)ccc2c1N[C@@H]1C[C@H]1c1ccccc1"
  unitString: "nM"
  inequalitySymbol: "="
  Ki: 140
- molecule: "CC(C)[C@H](NC(=O)[C@H](CCCN=C(N)N)NC(=O)[C@@H](N)CC(=O)O)C(=O)N[C@@H](Cc1ccc(O)cc1)C(=O)N[C@H](C(=O)N[C@@H](Cc1cnc[nH]1)C(=O)N1CCC[C@H]1C(=O)N[C@@H](Cc1ccccc1)C(=O)O)C(C)C"
  unitString: "nM"
  inequalitySymbol: "="
  Ki: 700000
